system: Ramos; test: IC50 of nucleoside drugs and TempN polymer on Ramos cells; type: cell-based; settings: Homo sapiens
measured_metric: IC50

Nc1ccn([C@@H]2O[C@H](CO)C(O)C2O)c(=O)n1 (stereo partly drawn) [AraC, 9-beta-D-arabinofuranosyl-cytidine] :: 22.7 nM
Nc1ccn([C@@H]2O[C@H](CO)C(O)C2(F)F)c(=O)n1 (some centres unmarked) [GemC, 2′2′-difluorodeoxycytidine] :: 1.6 nM
Nc1nc2c(ncn2[C@@H]2O[C@H](CO)C(O)C2O)c(=O)[nH]1 (stereo partly drawn) [AraG, 9-beta-D-arabinofuranosyl-guanosine] :: ~100000 nM
Nc1nc(F)nc2c1ncn2[C@@H]1O[C@H](CO)[C@@H](O)[C@@H]1O [Fludarabine] :: 1300 nM
Nc1nc(Cl)nc2c1ncn2[C@@H]1O[C@H](CO)[C@@H](O)[C@@H]1F [Clofarabine] :: 18 nM
